Test system: CLK1
reportedConditions: concentration: 1 μM, replicates: in singlicate; n = 1;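 also: KINOMEscan kinase panel screen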
testReadout: %Inh (%)
Lab book: enter the figure in %, no units written.

Solved entries (count: 5):
CCn1c(-c2nonc2N)nc2c(C#CC(C)(C)O)nc(OC[C@H](N)c3ccccc3)cc21 [GSK943949] : 24
Nc1ncc(-c2cccnc2)c2scc(-c3ccc4c(c3)CCN4C(=O)Cc3ccccc3)c12 [GSK683281] : 36
Cc1cccc(Nc2nc(N[C@H]3CCNC3)ncc2C(N)=O)c1.Cl [GSK2197149] : 51
Cc1ccc(S(=O)(=O)Nc2ccc(Nc3nccc(Nc4cccc5[nH]ncc45)n3)cc2)cc1 [GSK581271] : 85
COc1cc(Nc2nccc(N3CCC(NC(=O)Nc4cccc(C(C)=O)c4)C3)n2)cc(OC)c1OC (centres unmarked) [GSK1379753] : 16

INPUT: Recorded %Inh for CC(C)c1nc(-c2cccc(NS(=O)(=O)c3c(F)cccc3F)c2F)c(-c2ccnc(Nc3ccc(N4CCOCC4)nc3)n2)s1 [GSK2008607] , please?
OUTPUT: 0

INPUT: Please answer likewise for Nc1ncnc2c1nc(-c1ccccc1)n2-c1ccccc1 [SKF-97293]
OUTPUT: 15

INPUT: And for COc1cc(Nc2nccc(-c3c(-c4cccc(NC(=O)c5c(F)cccc5F)c4)nn4ccccc34)n2)cc(OC)c1OC [GSK323521] ?
OUTPUT: 30

---

Here the recorded %Inh is given for each entry.
Test system: MARK1
reportedConditions: concentration: 1 μM, replicates: in singlicate; n = 1
Please don't drop the unit; write it after the number.

Solved entries:
COc1cccc(NC(=O)NC2CCN(c3ccnc(Nc4cc(OC)c(OC)c(OC)c4)n3)C2)c1 (centres unmarked) : 0%
O=C(Nc1n[nH]c2cc(-c3ccoc3)ccc12)C1CC1 : 11%
c1ccc(Oc2ccc(Nc3ccnc4cc(-c5ccc(CNCCN6CCOCC6)o5)ccc34)cc2)nc1 : 0%
Clc1ccc(-c2nn3ncccc3c2-c2ccnc(Nc3ccc4c(c3)OCCO4)n2)cc1 : 0%

INPUT: Please look up its %Inh: "CN1CCN(Cc2cccc(-c3ccc4c(Nc5ccc(Oc6ccccc6)cc5)ccnc4c3)c2)CC1"
OUTPUT: 0%

INPUT: Next up: COc1cc(Nc2nccc(N3CCC(NC(=O)c4cc5ccccc5s4)C3)n2)cc(OC)c1OC (centres unmarked)
OUTPUT: 7%

INPUT: Next compound: "COc1cccc(C(=O)Nc2cccc(Oc3ccc4nc(NC(=O)C5CC5)cn4n3)c2)c1"
OUTPUT: 17%

INPUT: Now consider "Cc1cccc(NC(=O)Nc2ccc(Oc3ncnc4ccn(C)c34)cc2)c1" .
OUTPUT: 0%

INPUT: Let us now turn to "COc1ccc(-c2coc3ccc(-c4nnc(SCc5ccc(OC)c(C(F)(F)F)c5)o4)cc23)cc1"
OUTPUT: 5%

INPUT: Also check "Cc1cccc(Nc2nc(N[C@H]3CCNC3)ncc2C(N)=O)c1.Cl"
OUTPUT: 0%

INPUT: Entry "CC(=O)Nc1nc2cnc(Nc3cc(NC(=O)c4cccc(C5(C#N)CC5)c4Cl)ccc3C)nc2s1" please
OUTPUT: 1%

INPUT: Also "C[C@@H]1CC[C@@H](C(=O)Nc2ccccc2)CN1c1cc(-c2ccc3c(N)n[nH]c3c2)nc(N)n1" , if possible.
OUTPUT: 0%

INPUT: Item: "Cc1occc1-c1ncc(OC[C@@H](N)Cc2c[nH]c3ccccc23)cc1-c1ccc2[nH]nc(C)c2c1.O=C(O)C(F)(F)F"
OUTPUT: 44%

INPUT: Ok, now "COC(=O)Nc1nc2cc(Oc3ccc(NC(=O)Nc4cc(C(F)(F)F)ccc4F)cn3)ccc2[nH]1.Cl.Cl"
OUTPUT: 0%

INPUT: Another: Cc1ccc(C)c(NC(=O)NC2CCN(c3ccnc(Nc4ccc(F)cc4)n3)C2)c1 (centres unmarked)
OUTPUT: 0%

INPUT: And "Cn1cc(-c2ccc3c(c2)CCN3C(=O)Cc2cccc(Cl)c2)c2c(N)ncnc21" ?
OUTPUT: 2%

INPUT: Another compound to look at: "c1ccc(-c2cnc3nccnn23)cc1"
OUTPUT: 0%

Every entry's value here was drawn from paper PMC5540273.
